These entries and their values trace back to the Immune Epitope Database (IEDB).

Tested Target: HLA-A*31:01
Protocol Description: IEDB peptide-MHC binding, purified MHC/direct/fluorescence; filed as Kd, often an IC50 or EC50 that approximates it; bounds were set here for any values at or beyond the usual limits of such assays
Settings: source organism: Pseudomonas aeruginosa
Measured Metric: Kd

Measured Kd, `ALEPGFKDY` : ≥ 20 µM

---

Tested Target: HLA-A*68:02
Protocol Description: IEDB peptide-MHC binding, purified MHC/competitive/fluorescence; filed as Kd, often an IC50 or EC50 that approximates it; bounds were set here for any values at or beyond the usual limits of such assays
Settings: source organism: Vibrio vulnificus YJ016
pKd: −log10 of the molar value.
Measured Metric: pKd

`IALPVAWLF` on HLA-A*68:02 gives pKd = ≤ 4.70

---

Tested Target: HLA-B*35:01
Protocol Description: IEDB peptide-MHC binding, purified MHC/competitive/radioactivity; filed as Kd, often an IC50 or EC50 that approximates it; bounds were set here for any values at or beyond the usual limits of such assays
Settings: source organism: SARS coronavirus Tor2
For each record, write down the corresponding pKd.
The read-out pKd is expressed as -log10 of concentration in moles per litre.

Measured pKd, `FPCSICLSGL` : 6.91

Measured pKd, `HPNPKGFCDL` : 6.51

Measured pKd, `KPASRELSV` : 4.93

Measured pKd, `CPAEIVDTV` : 6.71

---

Tested Target: HLA-B*40:01
Protocol Description: IEDB peptide-MHC binding, purified MHC/direct/fluorescence; filed as Kd, often an IC50 or EC50 that approximates it; bounds were set here for any values at or beyond the usual limits of such assays
Settings: source organism: Yellow fever virus
pKd: −log10 of the molar value.
Measured Metric: pKd

Measured pKd, `FHKRDMRLL` : ≤ 4.70

---

Tested Target: HLA-B*58:01
Protocol Description: IEDB peptide-MHC binding, purified MHC/direct/fluorescence; filed as Kd, often an IC50 or EC50 that approximates it; bounds were set here for any values at or beyond the usual limits of such assays
Settings: source organism: Salmonella enterica subsp. enterica serovar Typhimurium
pKd: −log10 of the molar value.
Measured Metric: pKd

Measured pKd, `FMIDWILDA` : ≤ 4.70

---

Tested Target: HLA-A*02:01
Protocol Description: IEDB peptide-MHC binding, purified MHC/direct/fluorescence; filed as Kd, often an IC50 or EC50 that approximates it; bounds were set here for any values at or beyond the usual limits of such assays
Settings: source organism: Escherichia coli O157:H7
Measured Metric: Kd

Measured Kd, `VTRQIHNPR` : ≥ 20 µM

Measured Kd, `LLDPLYFEV` : 0.0042 µM

Measured Kd, `WLSVIAFGK` : ≥ 20 µM

---

Tested Target: HLA-A*30:01
Protocol Description: IEDB peptide-MHC binding, purified MHC/competitive/radioactivity; filed as Kd, often an IC50 or EC50 that approximates it; bounds were set here for any values at or beyond the usual limits of such assays
Settings: source organism: Mammarenavirus guanaritoense
Measured Metric: Kd (µM)
# number only, unit µM dropped from output

`PSLCRVNNSY` on HLA-A*30:01 gives Kd = 11.2

---

Tested Target: HLA-A*03:01
Protocol Description: IEDB peptide-MHC binding, purified MHC/direct/fluorescence; filed as Kd, often an IC50 or EC50 that approximates it; bounds were set here for any values at or beyond the usual limits of such assays
Settings: source organism: Salmonella enterica subsp. enterica serovar Typhimurium
Measured Metric: Kd

Measured Kd, `FMIDWILDA` : ≥ 20 µM
